Measured pKd by item
- TARGET_UNDER_TEST: DLG1_1, Q12959
- EXPERIMENTAL_PROTOCOL: holdup assay
- Set-up: key: below the threshold = too weak to quantify, mostly under pKd 3.1 to 4
- DETAILS: plain residues with an end cap or a label only (N-terminal biotin on a linker: ttds)
Answer with a number only.

Below, each entry is followed by its recorded pKd result.
Given the binder LCALPKVTTV [AGMAT, Q9BSE5] , what is its reported pKd?
4.97

Sample RTRQRNETQV [HPV51-E6, P26554] — what was its pKd?
4.78

Entry under review: PKRPFVESNV [TANC2, Q9HCD6] . Reported pKd?
4.31

If you can, please state the reported pKd value of DPLTPSRSQL [DGKK, Q5KSL6] .
4.01

Given SEKHFRETEV [HTLV1-TAX1, P03409] , state its recorded pKd.
5.19

More entries:
Field request: pKd | item: DPRNTQTSQI [ABRAXAS2, Q15018]
3.49

Look up pKd: LDSQIQETSI [MAP4, P27816]
3.64

// query pKd value for entry QFQYAKESYI [TAGAP, Q8N103]
4.16

Where do these numbers come from? They come from paper PMC9482650.
